Please respond with reported concentration at 1 h for every item in the list.
Assay: Blood and brain concentrations (rats), tail vein injection
Assay type: in vivo, Long-Evans Hooded rats
Conditions: male, Long-Evans Hooded, rat, in vivo, 3 mg/kg, 3 mg/kg tail vein injection, read-out: Plasma Concentration at 1 hr
Please give a number only; it is taken to be in µM.

Prompt line: Consider the compound [2H]C([2H])([2H])c1noc(C23CNC([2H])([2H])C2C3)n1 (centres unmarked) [Compound 136] and give its measured concentration at 1 h.
Response line: 13.6

Prompt line: Consider the compound [2H]C1([2H])NC[C@@]2(c3nc(C)no3)C[C@@H]12 [Compound 122a] and give its measured concentration at 1 h.
Response line: 12.2

Prompt line: Consider the compound [2H]C1([2H])NC([2H])([2H])C2(c3nc(C)no3)CC12 (centres unmarked) [Compound 134] and give its measured concentration at 1 h.
Response line: 13.5

Prompt line: Consider the compound Cc1noc([C@@]23CNC[C@@H]2C3)n1 [Compound 106a] and give its measured concentration at 1 h.
Response line: 5.6

Prompt line: Consider the compound Cc1noc(C23CNCC2C3)n1 (racemic) [Compound 105] and give its measured concentration at 1 h.
Response line: 15

Prompt line: Consider the compound [2H]C1([2H])NC[C@]2(c3nc(C)no3)C[C@H]12 [Compound 122b] and give its measured concentration at 1 h.
Response line: 8.8

Prompt line: Consider the compound [2H]C1([2H])NCC2(c3nc(C)no3)CC12 (racemic) [Compound 121] and give its measured concentration at 1 h.
Response line: 16.8

Prompt line: Consider the compound Cc1noc([C@]23CNC[C@H]2C3)n1 [Compound 106b] and give its measured concentration at 1 h.
Response line: 9.5
